- Tested on: U2OS
- test: Multiplex assay against U2OS
- Type: toxicity, cell-based
- conditionLabel: human, 24 h, 1 µM, compound concentration 1 uM, replicate 1
Each record here notes measured Population Normal (%).
Could you give me the number in %? Just the number is fine.

// solved cases for Population Normal (%) follow
For the compound shown here, C=CC(=O)Nc1cccc(Sc2nc(Nc3ccc(N4CCN(C)CC4)cc3)ncc2Cl)c1 , give the reported Population Normal (%). 92

For the compound shown here, Cc1ccccc1C(c1ccccc1C)N1C2CCC1CC(O)(c1ccccc1)C2 (centres undefined) , give the reported Population Normal (%). 97

For the compound shown here, C=CC(=O)Nc1cccc(Oc2nc(Nc3ccc(N4CCN(C)CC4)cc3OC)ncc2Cl)c1 , give the reported Population Normal (%). 87

Now consider a different compound.
For the compound shown here, C[C@]12CC[C@@H]3c4ccc(O)cc4CC[C@H]3[C@@H]1CC[C@@H]2O , give the reported Population Normal (%). 94

---

- System: Fibroblast
- test: Multiplex assay against human fibroblast
- Type: toxicity, cell-based
- conditionLabel: 24 h, 1 µM, compound concentration 1 uM, replicate 1
Use True when the recorded Population Mitochondria Different-Phenotype (%) is no lower than 9%; use False when it is lower.

// known answers, use as guide
Exam item: decide whether the reported Population Mitochondria Different-Phenotype (%) for C=CC(=O)Nc1cccc(Sc2nc(Nc3ccc(N4CCN(C)CC4)cc3)ncc2Cl)c1 is at least 9%. True

Exam item: decide whether the reported Population Mitochondria Different-Phenotype (%) for Cc1ccc2c(c1)c1c(n2CCc2ccc(C)nc2)CCN(C)C1 [LATREPIRDINE] is at least 9%. True

Exam item: decide whether the reported Population Mitochondria Different-Phenotype (%) for CC(C)CC(=O)Nc1[nH]nc2c1CN(C(=O)C1CCN(C)CC1)C2(C)C is at least 9%. False

Exam item: decide whether the reported Population Mitochondria Different-Phenotype (%) for O=c1[nH]c2ccccc2n1C1CCN(Cc2ccc(-c3[nH]c4cc5ncnc5cc4nc3-c3ccccc3)cc2)CC1 is at least 9%. False

Exam item: decide whether the reported Population Mitochondria Different-Phenotype (%) for CNC(=O)Nc1ccc(-c2nc(N3CC4CCC(C3)O4)c3cnn(C4CCC5(CC4)OCCO5)c3n2)cc1 is at least 9%. True

Exam item: decide whether the reported Population Mitochondria Different-Phenotype (%) for C=CC(=O)Nc1cccc(Oc2nc(Nc3ccc(N4CCN(C)CC4)cc3OC)ncc2Cl)c1 is at least 9%. True

More entries:
Exam item: decide whether the reported Population Mitochondria Different-Phenotype (%) for COc1ccccc1CN[C@H]1C2CCN(CC2)[C@H]1C(c1ccccc1)c1ccccc1 is at least 9%. False

Exam item: decide whether the reported Population Mitochondria Different-Phenotype (%) for COC(=O)C1=C(C)NC(C)=C(C(=O)OCCCN2CCC(c3ccccc3)(c3ccccc3)CC2)[C@H]1c1cccc([N+](=O)[O-])c1 is at least 9%. True

Exam item: decide whether the reported Population Mitochondria Different-Phenotype (%) for CC(C)NC(=O)N1CC[C@H](NC2=Nc3cc(F)ccc3N(CC(F)F)c3ccc(Cl)cc32)C1 is at least 9%. False

Exam item: decide whether the reported Population Mitochondria Different-Phenotype (%) for CCOC(=O)Nc1cc(-c2ccc(C)c(NS(C)(=O)=O)c2)nn2c(C)nnc12 is at least 9%. False

Exam item: decide whether the reported Population Mitochondria Different-Phenotype (%) for CCc1ccc(OCc2ccccc2C(=O)Nc2ccc3nc(C)cc(N)c3c2)cc1.Cl is at least 9%. True

Exam item: decide whether the reported Population Mitochondria Different-Phenotype (%) for CC(C)c1noc(N2CCC(COc3ccc(-c4ccc(S(C)(=O)=O)cc4)nc3)CC2)n1 is at least 9%. True

---

- Tested on: U2OS
- test: Multiplex assay against U2OS
- Type: toxicity, cell-based
- conditionLabel: human, 24 h, 1 µM, compound concentration 1 uM, replicate 1
// NB: equality with 80% counts as no (0); only Population Healthy Nuclei (%) strictly below is yes (1)

// known answers, use as guide
Please determine if COC(=O)C1=C(C)NC(C)=C(C(=O)OCCCN2CCC(c3ccccc3)(c3ccccc3)CC2)[C@H]1c1cccc([N+](=O)[O-])c1 [NIGULDIPINE] is below 80% in terms of Population Healthy Nuclei (%). yes (1)

Please determine if COc1ccc(-c2ccc3ncc4c(c3c2)n(-c2ccc(N3CCNCC3)c(C(F)(F)F)c2)c(=O)n4C)cn1.O=C(O)/C=C\C(=O)O [BGT-226] is below 80% in terms of Population Healthy Nuclei (%). yes (1)

Please determine if CC(C)CC(=O)Nc1[nH]nc2c1CN(C(=O)C1CCN(C)CC1)C2(C)C [PHA-793887] is below 80% in terms of Population Healthy Nuclei (%). no (0)

Please determine if CCc1ccc(OCc2ccccc2C(=O)Nc2ccc3nc(C)cc(N)c3c2)cc1.Cl is below 80% in terms of Population Healthy Nuclei (%). yes (1)

More entries:
Please determine if Cc1c[nH]c2nccc(Oc3c(F)cc(Nc4cc(Cl)nc(N)n4)cc3F)c12 [BAY-549] is below 80% in terms of Population Healthy Nuclei (%). yes (1)

Please determine if O=C(c1cc2c(cc1F)OC(c1ccc(F)cc1)(c1ccc(Cl)cc1Cl)O2)N1CCOCC1 (stereo not drawn) is below 80% in terms of Population Healthy Nuclei (%). yes (1)

Please determine if CC(C)OC(=O)N1CCC(Oc2ncnc3c2cnn3-c2ccc(S(C)(=O)=O)cc2F)CC1 is below 80% in terms of Population Healthy Nuclei (%). no (0)

---

- System: Fibroblast
- test: Multiplex assay against human fibroblast
- Format: toxicity, cell-based
- conditionLabel: 24 h, 10 µM, compound concentration 10 uM, replicate 2
Use Met when the recorded Population Hoechst High Intensity Objects (%) is no lower than 30%; use Not met when it is lower.

// known answers, use as guide
Exam item: decide whether the reported Population Hoechst High Intensity Objects (%) for CC(C)(C)NC[C@H](O)COc1nsnc1N1CCOCC1 is at least 30%. Not met

Exam item: decide whether the reported Population Hoechst High Intensity Objects (%) for CC(C)Oc1ccccc1C(=O)Nc1ccccc1C(=O)Nc1cccc(S(=O)(=O)C(F)(F)F)c1 is at least 30%. Not met

Exam item: decide whether the reported Population Hoechst High Intensity Objects (%) for CC(C)CC(=O)Nc1[nH]nc2c1CN(C(=O)C1CCN(C)CC1)C2(C)C is at least 30%. Met

Exam item: decide whether the reported Population Hoechst High Intensity Objects (%) for Cc1cccc(CN2CCN(C(c3ccccc3)c3ccc(Cl)cc3)CC2)c1.Cl.Cl (stereo not drawn) is at least 30%. Not met

Exam item: decide whether the reported Population Hoechst High Intensity Objects (%) for C=CC(=O)Nc1cccc(Sc2nc(Nc3ccc(N4CCN(C)CC4)cc3)ncc2Cl)c1 is at least 30%. Met

Exam item: decide whether the reported Population Hoechst High Intensity Objects (%) for O=c1[nH]c2ccccc2n1C1CCN(Cc2ccc(-c3[nH]c4cc5ncnc5cc4nc3-c3ccccc3)cc2)CC1 is at least 30%. Met

Exam item: decide whether the reported Population Hoechst High Intensity Objects (%) for CNC(=O)Nc1ccc2c(c1)[C@@]1(CC2)OC(=O)N(CC(=O)N(Cc2ccc(F)cc2)[C@@H](C)C(F)(F)F)C1=O is at least 30%. Met

Turning now to a further molecule:
Exam item: decide whether the reported Population Hoechst High Intensity Objects (%) for CC(C)c1noc(N2CCC(COc3ccc(-c4ccc(S(C)(=O)=O)cc4)nc3)CC2)n1 is at least 30%. Not met

---

- System: HEK-293T
- test: Multiplex assay against HEK293T
- Format: toxicity, cell-based
- conditionLabel: human, 12 h, 1 µM, compound concentration 1 uM, replicate 2
recordedMetric: Population Mitochondria Different-Phenotype (%)
Could you give me the number in %? Just the number is fine.

For the compound shown here, COc1ccc(-c2ccc3ncc4c(c3c2)n(-c2ccc(N3CCNCC3)c(C(F)(F)F)c2)c(=O)n4C)cn1.O=C(O)/C=C\C(=O)O , give the reported Population Mitochondria Different-Phenotype (%). 100

Now consider a different compound.
For the compound shown here, CC(C)(C)NC[C@H](O)COc1nsnc1N1CCOCC1 , give the reported Population Mitochondria Different-Phenotype (%). 19

---

Each record here notes measured Total Cell Count.
- System: HEK-293T
- test: Multiplex assay against HEK293T
- Format: toxicity, cell-based
- conditionLabel: human, 48 h, 1 µM, compound concentration 1 uM, replicate 2
Reply with just the number.

// solved cases for Total Cell Count follow
Give the reported Total Cell Count for CC(C)NC(=O)N1CC[C@H](NC2=Nc3cc(F)ccc3N(CC(F)F)c3ccc(Cl)cc32)C1 (system: HEK-293T). 580

Give the reported Total Cell Count for CN1CCN(Cc2ccc(Nc3ncc(Cl)c(Nc4ccccc4S(=O)(=O)N(C)C)n3)cc2)CC1 (system: HEK-293T). 259

More entries:
Give the reported Total Cell Count for CCc1ccc(OCc2ccccc2C(=O)Nc2ccc3nc(C)cc(N)c3c2)cc1.Cl (system: HEK-293T). 124

Give the reported Total Cell Count for Cc1ccc(C)c(Oc2ccncc2C(=O)N2CCN(C3CC3)c3ccccc32)c1 (system: HEK-293T). 425
